target_or_system: PI3K p110α/p85 (Homo sapiens)
protocol_summary: PI3K assay ([γ33P]ATP, PtdIns/PtdSer coated plates)
conditions_used: 2 μM ATP, 1 hour at RT; read-out: IC50 (PI3Kα)
measured_quantity: IC50

These solved cases illustrate the format of a correct answer.
compound	IC50
Nc1ccc(-c2nc(N3CCOCC3)nc3c2ncn3Cc2ccccc2)cc1N [Compound 38]	> 5 µM
Nc1cccc(-c2nc(N3CCOCC3)nc3c2ncn3Cc2ccccc2)c1 [Compound 29]	> 5 µM

Next compound, please.
Please look up its IC50: CCC(C)n1c(C)nc2c(-c3cccc(O)c3)nc(N3CCOCC3)nc21 (stereo not shown) [Compound 113]
< 1 µM

---

target_or_system: PI3K p110α/p85 (Homo sapiens, UniProt P42336)
Sequence (P42336 whole entry): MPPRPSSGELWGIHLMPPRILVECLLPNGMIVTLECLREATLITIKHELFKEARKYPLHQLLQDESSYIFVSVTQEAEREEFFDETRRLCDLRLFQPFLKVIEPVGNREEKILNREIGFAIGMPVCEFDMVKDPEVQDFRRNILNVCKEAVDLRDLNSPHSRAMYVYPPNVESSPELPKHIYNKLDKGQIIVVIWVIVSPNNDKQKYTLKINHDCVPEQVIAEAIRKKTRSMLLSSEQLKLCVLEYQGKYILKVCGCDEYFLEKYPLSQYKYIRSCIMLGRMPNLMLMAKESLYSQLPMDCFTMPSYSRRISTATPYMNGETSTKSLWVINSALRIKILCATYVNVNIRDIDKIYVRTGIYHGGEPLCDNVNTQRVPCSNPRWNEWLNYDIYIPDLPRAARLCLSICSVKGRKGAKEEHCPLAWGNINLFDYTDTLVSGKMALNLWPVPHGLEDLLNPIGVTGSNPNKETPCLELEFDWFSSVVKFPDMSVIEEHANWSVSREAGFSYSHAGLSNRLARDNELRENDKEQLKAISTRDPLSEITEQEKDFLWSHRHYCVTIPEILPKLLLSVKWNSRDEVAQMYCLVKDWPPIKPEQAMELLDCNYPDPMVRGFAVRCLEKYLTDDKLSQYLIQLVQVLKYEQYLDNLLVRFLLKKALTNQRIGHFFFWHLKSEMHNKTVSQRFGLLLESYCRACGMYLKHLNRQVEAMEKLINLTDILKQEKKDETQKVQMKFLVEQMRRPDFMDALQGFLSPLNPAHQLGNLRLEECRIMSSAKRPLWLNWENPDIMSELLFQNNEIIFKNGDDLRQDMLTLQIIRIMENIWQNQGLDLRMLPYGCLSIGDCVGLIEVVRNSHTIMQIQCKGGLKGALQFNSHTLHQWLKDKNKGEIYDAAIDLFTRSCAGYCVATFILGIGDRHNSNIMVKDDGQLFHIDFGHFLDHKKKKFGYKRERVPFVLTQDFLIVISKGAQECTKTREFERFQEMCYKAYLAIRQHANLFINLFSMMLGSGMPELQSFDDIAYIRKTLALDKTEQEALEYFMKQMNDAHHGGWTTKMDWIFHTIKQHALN
Sequence (P27986 whole entry partner): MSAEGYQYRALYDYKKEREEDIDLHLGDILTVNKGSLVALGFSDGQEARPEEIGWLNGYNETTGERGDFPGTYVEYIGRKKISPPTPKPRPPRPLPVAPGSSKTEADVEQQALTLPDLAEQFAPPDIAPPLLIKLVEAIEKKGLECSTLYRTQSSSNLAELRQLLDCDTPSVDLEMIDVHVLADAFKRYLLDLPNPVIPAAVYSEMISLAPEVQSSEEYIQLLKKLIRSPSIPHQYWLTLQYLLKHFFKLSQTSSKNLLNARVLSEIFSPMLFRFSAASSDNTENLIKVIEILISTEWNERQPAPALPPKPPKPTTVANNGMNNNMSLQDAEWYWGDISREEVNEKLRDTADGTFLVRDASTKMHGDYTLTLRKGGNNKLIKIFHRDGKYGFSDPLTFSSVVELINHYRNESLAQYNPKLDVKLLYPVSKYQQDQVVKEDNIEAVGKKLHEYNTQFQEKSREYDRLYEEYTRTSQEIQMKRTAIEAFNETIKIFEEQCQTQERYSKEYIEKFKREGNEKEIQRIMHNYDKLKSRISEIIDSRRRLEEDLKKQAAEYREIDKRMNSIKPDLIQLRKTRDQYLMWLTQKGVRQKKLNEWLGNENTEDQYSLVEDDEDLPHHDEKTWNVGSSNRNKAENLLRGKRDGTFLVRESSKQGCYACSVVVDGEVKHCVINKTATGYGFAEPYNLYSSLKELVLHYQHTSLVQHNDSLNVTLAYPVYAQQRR
protocol_summary: PI3K assay ([γ33P]ATP, PtdIns/PtdSer coated plates)
conditions_used: 2 μM ATP, 1 hour at RT; read-out: IC50 (PI3Kα)
pIC50: −log10 of the molar value.
measured_quantity: pIC50

These solved cases illustrate the format of a correct answer.
compound	target_or_system	measured_quantity	test_value
CC(c1ccccc1)n1cnc2c(-c3cccc(O)c3)nc(N3CCOCC3)nc21 (stereo not drawn)	PI3K p110α/p85 (Homo sapiens, UniProt P42336)	pIC50	> 6.00
CC(=O)Nc1ccc(Cn2cnc3c(-c4cccc(OC(C)=O)c4)nc(N4CCOCC4)nc32)cc1	PI3K p110α/p85 (Homo sapiens, UniProt P42336)	pIC50	> 6.00
Oc1cccc(-c2nc(N3CCOCC3)nc3c2nc(-c2cccs2)n3C2CCCCO2)c1 (stereo not drawn)	PI3K p110α/p85 (Homo sapiens, UniProt P42336)	pIC50	< 5.30

Please look up its pIC50: c1ccc(Cn2cnc3c(-c4ccc5[nH]ccc5c4)nc(N4CCOCC4)nc32)cc1
< 5.30

Quick one: COCCn1cnc2c(-c3cccc(O)c3)nc(N3CCOCC3)nc21
> 6.00

---

target_or_system: PI3K p110α/p85 (Homo sapiens)
protocol_summary: PI3K assay ([γ33P]ATP, PtdIns/PtdSer coated plates)
conditions_used: 2 μM ATP, 1 hour at RT; read-out: IC50 (PI3Kα)
This section presents molecules with their documented IC50 values.

molecule	target_or_system	IC50
c1cc(-c2nc(N3CCOCC3)nc3c2ncn3C2CCCC2)c2cc[nH]c2c1	PI3K p110α/p85 (Homo sapiens)	< 1000 nM
Cc1ccc(C(=O)N2CCC(n3cnc4c(-c5cccc6[nH]ccc56)nc(N5CCOCC5)nc43)CC2)s1	PI3K p110α/p85 (Homo sapiens)	< 1000 nM
COCCn1cnc2c(-c3ccc4cc[nH]c4c3)nc(N3CCOCC3)nc21	PI3K p110α/p85 (Homo sapiens)	> 5000 nM
N#CCn1cnc2c(-c3ccc(O)nc3)nc(N3CCOCC3)nc21	PI3K p110α/p85 (Homo sapiens)	> 5000 nM
CC(C)NC(=O)Cn1cnc2c(-c3cccc(O)c3)nc(N3CCOCC3)nc21	PI3K p110α/p85 (Homo sapiens)	< 1000 nM
COCC(C)n1cnc2c(-c3cccc(O)c3)nc(N3CCOCC3)nc21 (stereo not shown)	PI3K p110α/p85 (Homo sapiens)	< 1000 nM

Form field - read-out: IC50; system: PI3K p110α/p85 (Homo sapiens); submitted item: CC(C1CC1)n1cnc2c(-c3cccc(O)c3)nc(N3CCOCC3)nc21 (stereo not shown)
< 1000 nM

Quick one: CS(=O)(=O)Nc1ccc(Cn2cnc3c(-c4cccc(O)c4)nc(N4CCOCC4)nc32)cc1
< 1000 nM

Quick one: Oc1cc(F)cc(-c2nc(N3CCOCC3)nc3c2ncn3Cc2ccccc2)c1
< 1000 nM

Quick one: Oc1cccc(-c2nc(N3CCOCC3)nc3c2ncn3Cc2ccccc2)c1
< 1000 nM

Quick one: CCC(CC)n1cnc2c(-c3ccc(N)nc3)nc(N3CCOCC3)nc21
< 1000 nM

---

target_or_system: PI3K p110α/p85 (Homo sapiens, UniProt P42336)
protocol_summary: PI3K assay ([γ33P]ATP, PtdIns/PtdSer coated plates)
conditions_used: 2 μM ATP, 1 hour at RT; read-out: IC50 (PI3Kα)
pIC50: −log10 of the molar value.
measured_quantity: pIC50

These solved cases illustrate the format of a correct answer.
molecule	pIC50
C=CCCn1cnc2c(-c3ccc4cc[nH]c4c3)nc(N3CCOCC3)nc21	< 5.30
CS(=O)(=O)Nc1cccc(-c2nc(N3CCOCC3)nc3c2ncn3Cc2ccccc2)c1	< 5.30
COc1cccc(Cn2cnc3c(-c4cccc(O)c4)nc(N4CCOCC4)nc32)c1	> 6.00
O=C(Cn1cnc2c(-c3cccc(O)c3)nc(N3CCOCC3)nc21)N1CCCC1	> 6.00
CC1CN(c2nc(-c3cccc4[nH]ccc34)c3ncn(CC#N)c3n2)CC(C)O1 (centres unmarked)	< 5.30
CCC(C)n1c(NC(C)C)nc2c(-c3cccc(O)c3)nc(N3CCOCC3)nc21 (centres unmarked)	> 6.00

Please look up its pIC50: c1cc2ccc(-c3nc(N4CCOCC4)nc4c3ncn4CC3CC3)cc2[nH]1
< 5.30

Quick one: CC(C)(C)OC(=O)N1CCC(n2cnc3c(-c4cccc5[nH]ccc45)nc(N4CCOCC4)nc32)C1 (centres unmarked)
> 6.00

The measured values listed here are drawn from patent US20110009403A1.
